Overview of reported growth across a group of molecules:
Test system: ACHN renal
Test: NCI-60 one-dose screen, 48 h (100 = growth as untreated, 0 = no growth, -100 = all killed)
Conditions: 10 µM unless noted
About 83,000 compounds went through this panel and 20% of them were active in at least one assay; those are over-represented in the sample as a whole.
Hi! Could you send only the number? It should be in %, unit omitted.

Consider the worked cases shown below.
CC(=O)OCCc1ccccc1 : 100
O=C1C(Cl)C(c2ccccc2Cl)N1n1cnnc1 (centres undefined) : 96.8
Cc1cc(-c2noc(C(F)(F)F)n2)ccc1N1CCN(c2cc(C(=O)N(C)C)no2)CC1 : 63.9

Input line: Give recorded growth with ACHN renal for the following molecule: Cc1c(C)c2c(c(C)c1NC(=O)/C=C\C(=O)O)CCC(C)(CCCC(C)CCCC(C)CCCC(C)C)O2 (centres undefined)
Output line: 45.5

Input line: Lookup: growth / ACHN renal / CSc1ccc(Cl)c(C(=O)Nc2sccc2C(N)=O)c1
Output line: 102

Input line: Enter reported growth observed with ACHN renal for COc1cc(/C=C/C(=O)c2cccc(-n3cc(-c4ccc(Cl)cc4)[nH]c3=O)c2)cc(OC)c1OC
Output line: 67.5

Input line: Give ACHN renal growth for CC(=O)C(C(C)=O)c1nc2sc3cc(Cl)ccc3n2c(=N)c1C#N
Output line: 84

Input line: Could you share what growth was measured for N#C/C(=C\c1ccc(Br)cc1)n1nnc2cc(Cl)c(Cl)cc21 , tested on ACHN renal?
Output line: 41

Input line: Give ACHN renal growth for CC[C@]1(O)C[C@H]2CN(CCc3c([nH]c4ccccc34)[C@@](C(=O)OC)(c3cc4c(cc3OC)N(C=O)[C@H]3[C@@](O)(C(=O)OC)[C@H](OC(C)=O)[C@]5(CC)C=CCN6CC[C@]43[C@@H]65)C2)C1
Output line: 36.3

----------
System: RPMI-8226 leukemia
Experiment: NCI-60 one-dose screen, 48 h
Settings: 10 µM unless noted
The panel holds about 83,000 compounds, 20% with a hit somewhere; the sample as a whole holds those more often. Activity calls are given as the source filed them. Rule for the calls: active = growth percent below 10; inactive = the rest.
Answer with one of the outcomes active, inactive

Use the examples below as a reference point.
CC12CC(C#N)CCC1O2 (stereo not given) : inactive
O[C@H]1CO[C@H]2[C@@H]1OC[C@@H]2Oc1ccc(Nc2nc(Nc3ccc(F)c(Cl)c3)ncc2F)cc1Cl : inactive
COc1ccc(-c2cn(-c3cccc(C(=O)/C=C/c4cc(OC)c(OC)c(OC)c4)c3)c(=O)[nH]2)cc1 : active

Input line: Assay outcome for CC1(C)N=C(N)N=C(N)N1c1cccc(CN)c1 : what was it?
Output line: inactive

Input line: Could you please tell me the result logged for COc1ccc(O)c(-c2cc(-c3ccccc3)c(C#N)c(=O)[nH]2)c1 in this assay?
Output line: inactive

Input line: # fetch the recorded call for CC(C)c1ccc(C(=O)OC(=O)c2ccc(C(C)C)cc2)cc1 here
Output line: inactive

----------
# reported growth; entries follow
Tested on: SF-295 CNS
Assay: NCI-60 one-dose screen, 48 h (100 = growth as untreated, 0 = no growth, -100 = all killed)
Conditions: 10 µM unless noted
About 83,000 compounds went through this panel and 20% of them were active in at least one assay; those are over-represented in the sample as a whole.
Hi! Could you send only the number? It should be in %, unit omitted.

CCCCS(=O)(=O)Oc1ccc(-c2nc(C)c(C(=O)OCC)s2)cc1C=O : 67.5

Input line: Would you kindly share the measured growth for COc1cccc(-c2nc3sccn3c2-c2ccnc(NCCNS(=O)(=O)c3c(Cl)cccc3Cl)c2)c1 ?
Output line: 60.7

Input line: Which growth reading was recorded for the compound COc1cc(/C=C/C(=O)c2cccc(-n3cc(-c4ccc(Cl)cc4)[nH]c3=O)c2)cc(OC)c1OC ?
Output line: 80.8

Input line: Return reported growth; argument: Nc1c(C(=O)c2ccccc2)nnc2ncnn12
Output line: 103

Input line: Requested read-out: growth. Entry: CCCc1nc2ccccn2c1Nc1ccc(C(=O)NO)cc1
Output line: 93.8

----------
Tested on: DU-145 prostate
Experiment: NCI-60 one-dose screen, 48 h
Conditions: 10 µM unless noted
About 83,000 compounds went through this panel and 20% of them were active in at least one assay; those are over-represented in the sample as a whole. Calls of active or inactive are those of the source. The calls were made as follows: active = growth percent below 10; inactive = the rest.
Please reply with one of these outcomes: active, inactive

N#Cc1c(N)n2c(nc1=Nc1ccc([N+](=O)[O-])cc1)sc1cc(Cl)ccc12 : inactive
O=C(O)C1C[C@](O)(c2ccc(F)cc2)[C@@H](c2ccc(F)cc2)O1 (stereo not given in full) : inactive
COc1ccccc1C(=O)NC(=S)Nc1ccc(-c2nc3ccccc3[nH]2)cc1 : inactive
COc1ccc(/C=C2\COc3ccc(O)cc3C2=O)cc1OC : inactive
CCOc1cccnc1/C=N/NC(N)=S : inactive

Input line: State the result this test recorded for Nc1ccn(C2OC(F)(CO)C(O)C2F)c(=O)n1 (stereo not given) .
Output line: inactive

Input line: In this assay, the call recorded for CCc1c(C(=O)N[C@@H]2c3cc(Cl)ccc3CC[C@@H]2O)[nH]c(C)c1C(C)=O was what?
Output line: inactive

Input line: Hello, I am checking results. What call was entered for Cc1cc(N(CCCNc2ccnc3cc(Cl)ccc23)Cc2ccccn2)nc(N2CCCC2)n1 ?
Output line: inactive

Input line: Returns: the outcome recorded for C=C(C=O)C1CCC2(C(=O)O)CCC3(C)C(CCC4C5(C)CCC(O)C(C)(C)C5CCC43C)C12 (stereo not given) in this assay.
Output line: active

Input line: GET /call?item= O=C(NCCOCCOCCOCCNC(=O)c1cc2c(o1)C(=O)c1ccccc1C2=O)NC12CC3CC(CC(C3)C1)C2 returns the recorded outcome of this test.
Output line: active

----------
Tested on: SF-295 CNS
Test: NCI-60 one-dose screen, 48 h
Details: 10 µM unless noted
This is part of a sample that, as a whole, favours compounds with a hit. Of some 83,000 tested, about 20% had one in any assay. The source made the active and inactive calls. Rule for the calls: active = growth percent below 10; inactive = the rest.
One label from this list, please: active, inactive

CCn1c(Sc2nnc(NC(=O)CSC(=S)N3CCCCC3)s2)nc2c1c(=O)n(C)c(=O)n2C : inactive
Nc1c(C(=O)Nc2ccccc2)sc2nc3c(cc12)CCCCCC3 : active
C=C1c2c(C)nn(-c3ccc(O)cc3)c2N(C)C23C[C@@H]1C1(C)c4c(C)nn(-c5ccc(O)cc5)c4N(C)C(C)(C[C@H]12)C3 (stereo not given in full) : inactive

Input line: Hello, I am checking results. What call was entered for O=C(/C=C/C12c3ccccc3C(c3ccccc31)C1C(=O)NC(=O)C12)c1ccccc1 (stereo not given) ?
Output line: inactive

Input line: Identify the outcome logged in this assay for the molecule shown: CCNCCNc1cc(-c2ccc(F)cc2)c(C#N)c2nc3ccccc3n12
Output line: inactive

----------
Test system: TK-10 renal
Experiment: NCI-60 one-dose screen, 48 h (100 = growth as untreated, 0 = no growth, -100 = all killed)
Settings: 10 µM unless noted
Compounds without any hit were thinned out: in the full panel of roughly 83,000, 20% have a hit. Active and inactive are the calls of the source. The calls were made as follows: active = growth percent below 10; inactive = the rest.
Measured growth values are reported for all entries that follow.

Record excerpt, results attached:
COc1cc(NC(=O)c2cc(O)c(CC=C(C)C)c(O)c2)cc2c1O[C@]1(C)CC[C@@H](O)C(C)(C)[C@H]1C2 : 56.4% (inactive)
COc1cccc(CCC2CCCN(c3cc(C)nc(N)n3)C2)c1 (configuration not stated) : 37.5% (inactive)
Clc1ccc(-c2nnc(-c3ccco3)o2)cc1 : 120% (inactive)
Cc1c(Cl)cccc1NS(=O)(=O)c1ccccc1 : 104% (inactive)
Cc1cc(N2CCCCC2)nc(N(CCNc2ccnc3cc(Cl)ccc23)Cc2ccccn2)n1 : 83.8% (inactive)
NS(=O)(=O)c1cn(-c2ncnc3nc[nH]c23)ccc1=O : 94.5% (inactive)
Cc1ccc(NC(=O)C(Cl)Cl)cc1 : 94.3% (inactive)
CCOC(=O)c1nnn(C(Cc2ccccc2Cl)C(=O)OCC)c1C (configuration not stated) : 96.6% (inactive)

Input line: Entry under review: CCOC(=O)C1C(=O)C=C(c2cnccn2)CC1c1ccc(OC)c(OC)c1 (configuration not stated) . Reported growth?
Output line: 87.8% (inactive)

Input line: For the compound shown here, COc1ccc(C2CC(c3cnccn3)=NN2)cc1OC (configuration not stated) , give the reported growth.
Output line: 82.7% (inactive)

Input line: Data request, read-out growth, for Oc1ccccc1-c1nc2ccccn2c1NCCN1CCOCC1
Output line: 94.8% (inactive)

Input line: Suppose we examine the compound O=C(NCOC(O)C(Cl)(Cl)Cl)NCOC(O)C(Cl)(Cl)Cl (configuration not stated) ; what growth value has been reported?
Output line: 100% (inactive)

----------
Test system: K-562 leukemia
Assay: NCI-60 one-dose screen, 48 h
Details: 10 µM unless noted
The panel holds about 83,000 compounds, 20% with a hit somewhere; the sample as a whole holds those more often. Activity calls are given as the source filed them. The calls were made as follows: active = growth percent below 10; inactive = the rest.
The reply should name one outcome from True for active, False for inactive

Please review the following examples before continuing.
Cc1ccc(Nc2ccc(Nc3ccc(C)cc3S(=O)(=O)O)c3c2C(=O)c2ccccc2C3=O)c(S(=O)(=O)O)c1 : False
O=C(CC12CC3CC(CC(C3)C1)C2)NCCOCCOCCOCCNC(=O)c1cc2c(o1)C(=O)c1ccccc1C2=O : True
C=CC(=O)Nc1cccc(C)c1Nc1cc(-c2cccnc2Cc2c(C)c(OC)cc(OC)c2C)ncn1 : True
O=c1[nH]nc(-c2ccc(Cl)cc2)cc1Cc1ccccc1 : False
O=c1ccn(C2OC(F)(CO)C(O)C2F)c(=O)[nH]1 (stereo not drawn) : False
CCN(CC)CCNc1ccc(C)c2sc3cc(C)ccc3c(=O)c12 : True
CNC(=O)c1c(NC(=O)c2ccc(C(C)(C)C)cc2)sc2c1CCC(=O)C2 : True
COc1ccc(/C(C)=C(\c2ccc(Cl)cc2)c2ccc(OCCCN(C)C)cc2)cc1F : True
Cc1nc(Nc2cccc(NC(=O)Nc3ccc(Cl)cc3)c2)c2ccccc2n1 : False
COc1ccc(Nc2ncc(Br)c(NCCCNC(=O)C3CCC3)n2)cc1 : False

Input line: Assay outcome for CCOC(=O)c1c(C)nc2c(c1N)/C(=C/c1cc(OC)c(OC)c(OC)c1)C(=O)N2c1ccc(OC)cc1 : what was it?
Output line: False

Input line: Fill in: this test's call for C=C1c2c(C)nn(-c3ccc(N)cc3)c2N(C)C23CC1C1(C)c4c(C)nn(-c5ccc(N)cc5)c4N(C)C(C)(CC12)C3 (stereo not drawn) is ___
Output line: False

Input line: Tell me the recorded outcome of this test for C=C1C(=O)O[C@H]2[C@H]1CC/C(Cn1cc(CNCCc3c[nH]c4ccccc34)nn1)=C\CC[C@@]1(C)O[C@@H]21 .
Output line: False

Input line: Which outcome did this test record for the molecule COC(=O)Nc1nc2ccc(C(=O)C3CC3)cc2[nH]1 ?
Output line: True

Input line: Per the records of this test, what outcome belongs to CC(C)c1ccc(NC(=O)Cc2ccc(Nc3ncnc4cc(-c5cnn(CCN(C)C)c5)ccc34)cc2)cc1 ?
Output line: True
